target: Renin (Homo sapiens, UniProt P00797); assay: Inhibition of human plasma renin at pH 6
Field: label. Allowed values: criterion met (IC50 < 2 nM) or criterion not met (IC50 >= 2 nM).

[
  {
    "COMPOUND": "CC[C@@H](C)CNC(=O)[C@@H](CC(O)[C@H](CC(C)C)NC(=O)C(C(=O)COc1ccccc1)C(O)C(=O)O)C(C)C (stereo partly specified)",
    "GROUP": "criterion not met"
  },
  {
    "COMPOUND": "CC[C@@H](C)[C@H](NC(=O)[C@@H](CC(O)[C@H](CC(C)C)NC(=O)[C@H](Cc1c[nH]cn1)NC(=O)Cc1ccccc1)C(C)C)C(=O)N(C)c1ccccn1 (stereo partly specified)",
    "GROUP": "criterion not met"
  },
  {
    "COMPOUND": "CC[C@@H](C)[C@H](NC(=O)[C@@H](CC(O)[C@H](CC(C)C)NC(=O)C(C(=O)COc1ccccc1)C(O)C(=O)O)C(C)C)C(=O)N(C)c1ccccn1 (stereo partly specified)",
    "GROUP": "criterion met"
  }
]

Q: Problem: For the compound CC[C@@H](C)CNC(=O)[C@@H](NC(O)[C@@H](CC(=O)[C@H](CC(=O)O)NC(=O)COc1ccccc1)CC1CCCCC1)C(C)C (stereo partly specified) , is IC50 under 2 nM?
Ans: criterion not met

Q: Problem: For the compound CC[C@@H](C)[C@H](NC(=O)[C@@H](CC(O)[C@H](CC1CCCCC1)NC(=O)[C@@H](CC(=O)O)NC(=O)COc1ccccc1)C(C)C)C(=O)N(C)c1ccccn1 (stereo partly specified) , is IC50 under 2 nM?
Ans: criterion met

* * *

Target: Renin (Homo sapiens, UniProt P00797)
Sequence (P00797 whole entry): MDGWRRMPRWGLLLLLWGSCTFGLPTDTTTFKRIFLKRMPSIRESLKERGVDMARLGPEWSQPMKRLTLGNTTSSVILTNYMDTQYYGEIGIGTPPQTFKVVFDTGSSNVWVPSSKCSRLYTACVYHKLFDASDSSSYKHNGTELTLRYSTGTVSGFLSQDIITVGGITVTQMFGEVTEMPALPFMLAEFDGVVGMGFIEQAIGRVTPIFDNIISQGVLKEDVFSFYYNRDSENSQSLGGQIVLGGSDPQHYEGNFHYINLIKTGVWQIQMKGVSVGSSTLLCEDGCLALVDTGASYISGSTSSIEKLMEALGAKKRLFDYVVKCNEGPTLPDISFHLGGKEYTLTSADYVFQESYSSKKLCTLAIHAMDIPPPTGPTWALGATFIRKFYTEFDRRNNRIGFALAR
Assay: Inhibition of human plasma renin at pH 6
pIC50: −log10 of the molar value.
Classify as follows. Reported pIC50 greater than or equal to 8: 1 (yes). Reported pIC50 below: 0 (no).

[
  {
    "COMPOUND": "CC[C@@H](C)CNC(=O)[C@@H](CC(O)[C@H](CC(C)C)NC(=O)[C@@H](CC(=O)O)NC(=O)COc1ccccc1)C(C)C (stereo not given in full)",
    "GROUP": "0 (no)"
  },
  {
    "COMPOUND": "CC[C@@H](C)[C@H](NC(=O)[C@@H](CC(O)[C@H](CC(C)C)NC(=O)C(C(=O)Cc1ccccc1)C(O)C(=O)O)C(C)C)C(=O)N(C)c1ccccn1 (stereo not given in full)",
    "GROUP": "1 (yes)"
  },
  {
    "COMPOUND": "CC[C@@H](C)[C@H](NC(=O)[C@@H](CC(O)[C@H](CC(C)C)NC(=O)[C@@H](CC(=O)O)NC(=O)Cc1ccccc1)C(C)C)C(=O)N(C)c1ccccn1 (stereo not given in full)",
    "GROUP": "1 (yes)"
  }
]

Continue with the compound presented below.
Q: Test whether the compound CC[C@@H](C)CNC(=O)[C@@H](CC(O)[C@H](CC1CCCCC1)NC(=O)C(C(=O)COc1ccccc1)C(O)C(=O)O)C(C)C (stereo not given in full) records pIC50 of 8 or higher.
Ans: 1 (yes)

* * *

Measured IC50 values are reported for all entries that follow.
biological target: Renin (Homo sapiens, UniProt P00797); test: Inhibition of human plasma renin at pH 6; type: cell-free
Numeric only. Scale: nM

Per the record, CC[C@@H](C)CNC(=O)[C@@H](CC(O)[C@H](CC(C)C)NC(=O)C(C(=O)Cc1ccccc1)C(O)C(=O)O)C(C)C (stereo partly drawn) has IC50 of 6

Per the record, CC[C@@H](C)[C@H](NC(=O)[C@@H](CC(O)[C@H](CC(C)C)NC(=O)[C@H](Cc1c[nH]cn1)NC(=O)COc1ccccc1)C(C)C)C(=O)N(C)c1ccccn1 (stereo partly drawn) has IC50 of 8.5

Per the record, CC[C@@H](C)[C@H](NC(=O)[C@@H](CC(O)[C@H](CC(C)C)NC(=O)[C@@H](CC(=O)O)NC(=O)COc1ccccc1)C(C)C)C(=O)N(C)c1ccccn1 (stereo partly drawn) has IC50 of 1.9
